Test system: UACC-257 melanoma
Assay: NCI-60 one-dose screen, 48 h (100 = growth as untreated, 0 = no growth, -100 = all killed)
Settings: 10 µM unless noted
Method: Cells are grown in 96 well plates and exposed to the test compound for 48 hours. Compounds are tested at a single concentration, which is 10^-5 M for most compounds. The reported endpoint is percent growth (GI% or GIPRCNT), where numbers from 0 - 100% represent growth inhibition, and numbers from -100% - 0 represent cell death. For example, a value of 40 represents 60% growth inhibition. A value of 0 means no net growth occurred over the course of the experiment. […]
This is part of a sample that, as a whole, favours compounds with a hit. Of some 83,000 tested, about 20% had one in any assay.
Let's look at some compounds and their measured growth.
Reply numerically in %, unit not repeated.

[
  {
    "Compound": "COc1ccc(CCN2CCC(CN(C)Cc3cnn(-c4ccccc4)c3)CC2)cc1",
    "Reading Unit": "%",
    "Number": 19.1
  },
  {
    "Compound": "Nc1n[nH]c2ccc([C@@H]3Nc4ccc5[nH]ncc5c4[C@H]4[C@H]5CCC(C5)[C@H]43)cc12",
    "Reading Unit": "%",
    "Number": 69.4
  },
  {
    "Compound": "O=c1oc2ccc(-c3ccc(F)cc3F)cc2c(=O)n1-c1cccc(C(F)(F)F)c1",
    "Reading Unit": "%",
    "Number": -14.2
  },
  {
    "Compound": "O=S(=O)(Nc1ncccn1)c1ccc(NC2Nc3nc4ccccc4nc3S2)cc1 (centres undefined)",
    "Reading Unit": "%",
    "Number": 94
  },
  {
    "Compound": "COC(=O)C1=Nc2ccc(F)cc2/C1=C/c1sc(=S)[nH]c1O",
    "Reading Unit": "%",
    "Number": 45.9
  },
  {
    "Compound": "CC(C)(C)c1ccc(C2CC(=O)C3=C(C2)Nc2ccccc2N(C(=O)c2ccccc2Cl)C3c2ccc(F)cc2)cc1 (centres undefined)",
    "Reading Unit": "%",
    "Number": -34.1
  },
  {
    "Compound": "O=C1NC(=O)C(=Cc2cn(Cc3cn(Cc4ccc(Cl)cc4Cl)nn3)c3ccccc23)C(=O)N1",
    "Reading Unit": "%",
    "Number": 95.8
  },
  {
    "Compound": "COc1ccc2sc3c(NCCCN)nc4ccccc4c3c(=O)c2c1",
    "Reading Unit": "%",
    "Number": 95.7
  }
]

Consider CC(=O)c1ccc(NC(=O)Nc2ccc(S(=O)(=O)Nc3ccc(Cl)nn3)cc2)cc1 . Its measured growth is 99.4

----------
Tested on: HS 578T breast
Assay: NCI-60 one-dose screen, 48 h
Conditions: 10 µM unless noted
Protocol: Growth inhibition of the HS 578T human tumor cell line is measured as a screen for anti-cancer activity. Cells are grown in 96 well plates and exposed to the test compound for 48 hours. Compounds are tested at a single concentration, which is 10^-5 M for most compounds. The reported endpoint is percent growth (GI% or GIPRCNT), where numbers from 0 - 100% represent growth inhibition, and numbers from -100% - 0 represent cell death. For example, a value of 40 represents 60% growth inhibition. […]
This is part of a sample that, as a whole, favours compounds with a hit. Of some 83,000 tested, about 20% had one in any assay. The source made the active and inactive calls. How the source made its calls: active means growth percent below 10; inactive means the rest.
# output must be one of Yes = active, No = inactive

Past entries and their recorded results:
[
  {
    "Compound": "COc1cccc(/C=C/C(=O)c2c(C)nc3ccccc3c2/C=C/c2ccccc2)c1OC",
    "Study Target": "HS 578T breast",
    "Group": "No"
  },
  {
    "Compound": "Cc1ccc2c(n1)C(=O)C(Oc1ccc(Br)cc1)=CC2=O",
    "Study Target": "HS 578T breast",
    "Group": "No"
  },
  {
    "Compound": "CC[C@@H](C)[C@H](NC(=O)Cn1cc(CNC(=O)[C@@H](NC(=O)OCc2ccccc2)C(C)C)nn1)C(=O)O",
    "Study Target": "HS 578T breast",
    "Group": "No"
  },
  {
    "Compound": "Cc1ccc(NC2=CC(=O)C(=O)c3ccccc32)c(C)c1",
    "Study Target": "HS 578T breast",
    "Group": "No"
  }
]

How did this test come out for O=C(c1nc2ccccc2[nH]1)C1C(c2ccc([N+](=O)[O-])cc2)C2CC3CCCCC3N2[C@@]12C(=O)Nc1cc(Cl)ccc12 (some centres undefined) ?
No

Record lookup: outcome of this test for NCCOc1ccccc1/C=C1\c2ccccc2-c2ccc([N+](=O)[O-])cc21 ?
No

What was the test verdict on O=C(Nc1ccc(N2CCNCC2)cc1)c1[nH]ncc1Nc1cc(Oc2ccccc2)ncn1 ?
No

Test call, this compound: O=C(c1nc2ccccc2[nH]1)C1C(c2cccc([N+](=O)[O-])c2)C2CC3CCCCC3N2[C@@]12C(=O)Nc1cc(Cl)ccc12 (some centres undefined)
No

Any idea what this test logged for O=Cc1cc2ccccc2nc1Nc1nccs1 ?
No

----------
system: SR leukemia; experiment: NCI-60 one-dose screen, 48 h; details: 10 µM unless noted
About 83,000 compounds went through this panel and 20% of them were active in at least one assay; those are over-represented in the sample as a whole. Calls of active or inactive are those of the source. How the source made its calls: active means growth percent below 10; inactive means the rest.
Outcomes you can answer with include only these: true (1) for active, false (0) for inactive

Examples from the recorded data:
[
  {
    "Compound": "NCCOc1ncccc1/C=C1\\c2ccccc2-c2ccc(F)cc21",
    "Group": "true (1)"
  },
  {
    "Compound": "Cc1c(-c2csc(-n3nc(C(F)(F)F)cc3C(F)(F)F)n2)no[n+]1[O-]",
    "Group": "false (0)"
  },
  {
    "Compound": "COc1ccc(C(O)(CCC(C)C)C(CN2CCOCC2)c2ccc(Cl)cc2)cc1 (stereo unspecified)",
    "Group": "false (0)"
  }
]

Returns: the outcome recorded for COc1ccc(-c2c(-c3ccc(OC)c(O)c3)cnc3ncnn23)cc1 in this assay.
false (0)

Hey, what did the test say about COc1ccc(/C=C2\N=C(c3ccccc3)N(c3ccc(-c4nc5ccc(C)cc5s4)cc3)C2=O)cc1 ?
false (0)

Short answer needed: outcome of this test for COc1cc(C2C(C#N)=C(N)OC3=C2C(=O)c2ccccc2C3=O)cc(OC)c1O (stereo unspecified) ?
false (0)

Tell me the assay call for CN1C(=O)N(C)C2C1NN=c1s/c(=C\c3ccc([N+](=O)[O-])cc3)c(=O)n12 (stereo unspecified) please.
false (0)

Hi team, can someone confirm the assay call for CC1(O)COCCCCOc2c(CN)cccc2NC(=O)c2nc(cnc2N)-c2ccc(cc2)S(=O)(=O)C(C)(C)C1 (stereo unspecified) ?
true (1)

Record lookup: outcome of this test for CCOC(=O)c1sc(-c2ccc(OS(=O)(=O)C[C@]34CCC(CC3=O)C4(C)C)c(C=O)c2)nc1C ?
false (0)

Field: outcome | Entry: COc1ccc(C(=O)Nc2ccc3nc(N4CCCCC4)cc(C)c3c2)cc1OC
false (0)

Which result was noted for this compound in the test: Cc1sc2ncn(CC(=O)Nc3ccc(S(N)(=O)=O)cc3)c(=O)c2c1C
false (0)

What is the recorded call for this compound in the test? CCOC(=O)C1(C(=O)OCC)N=C(c2ccccc2)C=C1c1ccccc1
false (0)

Hi team, can someone confirm the assay call for COc1cc(C#N)cc2[nH]c(=O)oc12 ?
false (0)

----------
tested on: HS 578T breast; test: NCI-60 one-dose screen, 48 h; conditions: 10 µM unless noted
Compounds without any hit were thinned out: in the full panel of roughly 83,000, 20% have a hit. The source made the active and inactive calls. The calls were made as follows: active = growth percent below 10; inactive = the rest.
Give one outcome, nothing more. List: active, inactive

Illustrative cases are given below, each with its answer.
[
  {
    "Compound": "CCN1C(=O)N(CC)C2C1NN=c1s/c(=C3\\C(=O)N(CC(C)(C)C)c4ccccc43)c(=O)n12 (stereo unspecified)",
    "Group": "inactive"
  },
  {
    "Compound": "NS(=O)(=O)c1ccc(CCN=C=S)cc1",
    "Group": "inactive"
  },
  {
    "Compound": "COc1ccc(Cn2cc(Cn3c(=O)c(-c4nc5ccccc5[nH]4)cc4ccccc43)nn2)c(OC)c1OC",
    "Group": "active"
  }
]

Outcome logged for COc1cc(C#N)cc2[nH]c(=O)oc12 in this assay:
inactive

GET /call?item= COc1ccc(C2C3=C(COC3=O)N(CCO)c3cc4c(cc32)CCC4)cc1 (stereo unspecified) returns the recorded outcome of this test.
inactive

Which outcome was entered for the compound CCc1ccc(CNCC(O)c2ccccc2)cc1 (stereo unspecified) in this test?
inactive

----------
tested on: OVCAR-3 ovarian; test: NCI-60 one-dose screen, 48 h; details: 10 µM unless noted
This is part of a sample that, as a whole, favours compounds with a hit. Of some 83,000 tested, about 20% had one in any assay. Activity calls are given as the source filed them. The calls were made as follows: active = growth percent below 10; inactive = the rest.
Hello, when you answer, please use one of the following outcomes: class 1 = active, class 0 = inactive

For orientation, consider the following solved cases.
[
  {
    "Compound": "CC(=Nc1ccccc1)C1=C(O)C(Cc2ccc(F)cc2)NC1=O (stereo not given)",
    "Study Target": "OVCAR-3 ovarian",
    "Group": "class 1"
  },
  {
    "Compound": "COc1cc(C2C3=C(COC3=O)N(CCO)c3cc4c(cc32)CCC4)cc(OC)c1O (stereo not given)",
    "Study Target": "OVCAR-3 ovarian",
    "Group": "class 1"
  },
  {
    "Compound": "Cc1sc2ncnc(Sc3nc4ccccc4[nH]3)c2c1C",
    "Study Target": "OVCAR-3 ovarian",
    "Group": "class 1"
  },
  {
    "Compound": "CC(=O)c1ccc2oc(=O)n(Cc3ccc(C#N)cc3)c(=O)c2c1",
    "Study Target": "OVCAR-3 ovarian",
    "Group": "class 0"
  },
  {
    "Compound": "Clc1ccc(Oc2ccc(Nc3ncnc4onc(-c5ccccc5)c34)cc2)c(Cl)c1",
    "Study Target": "OVCAR-3 ovarian",
    "Group": "class 0"
  }
]

// return assay outcome for CCN1CCN(c2cc(C)c3cc(NC(=O)c4ccc(OC)c(OC)c4)ccc3n2)CC1
class 0

Short answer needed: outcome of this test for O=C(Cn1cc(COc2ncnc3c2cnn3-c2ccccc2)nn1)Nc1cccc2ccccc12 ?
class 0

For CC1=C(C(=O)OCC2CCN(C(=O)OC(C)(C)C)CC2)[C@@H](c2cccc(C#N)c2)C2=C(CC(C)(C)CC2=O)N1 , which call appears in the assay record?
class 0

Give the logged outcome of this assay for the following compound: Nc1cccc(Nc2cc(S(=O)(=O)O)c(N)c3c2C(=O)c2ccccc2C3=O)c1
class 0

// outcome(item) with item = CNC(=O)c1cc(Oc2ccc(CC(=O)Nc3cc(C(C)(C)C)cn3C)cc2)ccn1
class 0
